- target-under-test: Large T antigen (Simian virus 40, UniProt P03070);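 also: Confirmatory-stage PubChem screen for compounds that inhibit SV40 T antigen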
- Sequence (P03070 whole entry): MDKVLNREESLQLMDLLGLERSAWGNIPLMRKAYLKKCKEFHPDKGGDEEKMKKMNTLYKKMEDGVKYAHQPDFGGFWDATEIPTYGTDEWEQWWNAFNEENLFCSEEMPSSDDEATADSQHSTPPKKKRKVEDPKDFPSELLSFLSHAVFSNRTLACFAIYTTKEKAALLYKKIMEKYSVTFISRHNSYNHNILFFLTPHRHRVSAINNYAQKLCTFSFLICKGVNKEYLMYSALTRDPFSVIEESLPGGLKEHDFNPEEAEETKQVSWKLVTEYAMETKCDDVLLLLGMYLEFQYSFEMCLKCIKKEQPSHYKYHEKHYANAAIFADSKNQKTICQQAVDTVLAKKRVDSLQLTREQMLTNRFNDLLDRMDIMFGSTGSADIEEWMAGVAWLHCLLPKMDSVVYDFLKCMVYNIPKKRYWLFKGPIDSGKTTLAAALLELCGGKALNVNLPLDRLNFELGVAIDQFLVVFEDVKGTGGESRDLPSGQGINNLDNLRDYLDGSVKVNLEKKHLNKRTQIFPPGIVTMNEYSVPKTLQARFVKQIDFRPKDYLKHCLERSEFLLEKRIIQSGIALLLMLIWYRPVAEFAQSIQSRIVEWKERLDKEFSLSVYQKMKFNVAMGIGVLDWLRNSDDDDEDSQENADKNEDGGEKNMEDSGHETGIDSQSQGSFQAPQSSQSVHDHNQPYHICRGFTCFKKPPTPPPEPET
- Assay type: functional, Betapolyomavirus macacae
Calls of active or inactive are those of the source.
Kindly supply the reported IC50 values for the records listed here.

Prompt: If you can, please state the reported IC50 value of O=C1NC(=S)NC(=O)C1=Cc1cccn1-c1ccc(O)cc1 .
Completion: 30.3 µM (active)

Prompt: Follow-up item: O=C1N=C(Nc2ccc(O)cc2)S/C1=C\C=C\c1ccco1
Completion: 31.5 µM (active)

Prompt: Entry to check: COc1ccc(CNc2ccc(N3CCOCC3)cc2)cc1
Completion: 16.8 µM (active)

Prompt: Next up: CC1=C(C#N)c2nc(N)c(C#N)c(C)c2/C1=C\c1ccc(OCC(=O)O)c(Cl)c1
Completion: 44.3 µM (active)

Prompt: What do we get for COc1ccc(N2CSC3=C(C#N)C(c4ccc(OC)c(OC)c4)CC(=O)N3C2)c(OC)c1 (stereo unspecified) ?
Completion: 52.7 µM (active)

Prompt: Also O=C(Nc1ccc(O)cc1)/C(=C\c1ccncc1)NC(=O)c1ccccc1 ?
Completion: 27.7 µM (active)

====

- Tested on: Streptococcus
- procedure-text: Group A Streptococcus viability loss, dose response, counter-screen for streptokinase expression inhibitor project, luminescence, BacTiterGlo (AID 1915);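 also: potency for reduction of bacterial viability or growth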
- Assay type: functional, organism-based
Activity calls are given as the source filed them.
parameter-measured: EC50

Prompt: Give the measured EC50 of O=C(N/N=C/c1cc([N+](=O)[O-])ccc1O)C(O)(c1ccccc1)c1ccccc1 .
Completion: 9.11 µM (active)

Prompt: Same again, this time with CC(/C=C/c1ccc(N(C)C)cc1)=N/NC1=NC(=O)CC(C(=O)Nc2ccc(Cl)cc2)S1 (configuration not stated)
Completion: 8.65 µM (active)

Prompt: And what about the molecule O=C(NNC(=O)c1cc(-c2ccc(Cl)c(Cl)c2)nc2ccccc12)Nc1ccccc1 ?
Completion: 13.7 µM (active)

Prompt: Another molecule to check: CCN(c1ccccc1)S(=O)(=O)c1ccc(C(=O)Nc2nnc(-c3ccco3)o2)cc1
Completion: 5.63 µM (active)

Prompt: Next up: CNC(=O)c1c(NC(=O)c2ccc(N3C(=O)CCC3=O)cc2)sc2c1CCC(C)C2 (configuration not stated)
Completion: 103 µM (active)

Prompt: Now consider Cc1ccc(NC(=O)c2nc[nH]c2C(=O)N[C@@H](C)c2ccccc2)cc1 .
Completion: 16.9 µM (active)

Prompt: Next molecule: Cc1[nH]n(-c2cccc3ccccc23)c(=O)c1/C=N/NC(=O)c1cccc([N+](=O)[O-])c1
Completion: 7.09 µM (active)

====

Please provide measured IC50 for the entries that follow.
- target-under-test: Sentrin-specific protease 8 (Homo sapiens);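 also: kinetic enzyme assay of SENP8 cleaving a Nedd8 protein substrate, dose-response confirmation of screening hits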
- Sequence (Q96LD8 whole entry): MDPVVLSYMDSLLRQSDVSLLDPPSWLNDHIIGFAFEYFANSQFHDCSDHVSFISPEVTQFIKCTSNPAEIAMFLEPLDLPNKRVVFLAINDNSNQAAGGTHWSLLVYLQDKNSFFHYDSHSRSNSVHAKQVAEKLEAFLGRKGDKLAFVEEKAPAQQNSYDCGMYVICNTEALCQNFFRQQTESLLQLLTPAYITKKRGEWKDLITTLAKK
- Format: functional
Active and inactive are the calls of the source.

Prompt: Report IC50 for Cc1cnc(C(=O)Nc2c(-c3ccccc3)[nH][nH]c2=O)cn1 please.
Completion: 30.3 µM (active)

Prompt: Cool, now CCS(=O)(=O)N1CCC(C(=O)N2CCc3ccccc3C2)CC1
Completion: 8.89 µM (active)

Prompt: Please give the result for O=C(CN1C(=O)CSC1=O)N1CCc2ccccc2C1 too.
Completion: 10.6 µM (active)

Prompt: What about this compound? Oc1cc(NCCN2CCOCC2)cc2cccnc12
Completion: 2.68 µM (active)

====

- target-under-test: UniProtKB Q06710
- procedure-text: inhibitors of PAX8-driven TPO luciferase reporter, dose response, RMG-I cells, cherry-pick (AID 687027);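 also: luciferase reporter driven by Pax8 target thyroperoxidase promoter measured by SteadyGlo luminescence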
- Format: functional, cell-based
Active and inactive are the calls of the source.
Exercise: state measured AC50 for each of the compounds provided.

Prompt: Entry Cc1ccc(S(=O)(=O)N(C)C[C@H]2OCCCC[C@@H](C)Oc3ccc(NS(=O)(=O)c4ccc(F)cc4)cc3C(=O)N([C@@H](C)CO)C[C@H]2C)cc1 : reported AC50 = ?
Completion: 8.12 µM (active)

Prompt: Likewise for O=C(Nc1ccc(F)cc1)c1nc(S(=O)(=O)Cc2ccccc2)ncc1Cl ?
Completion: 10.4 µM (active)

Prompt: Same thing, different compound: COc1ccccc1-c1ccc(OCCCN2CCC(C(O)(c3ccccc3)c3ccccc3)CC2)cc1
Completion: 10.2 µM (active)

Prompt: Now the compound C[C@@H]1O[C@@H](O[C@@H]2C=C3CC[C@@H]4C(CC[C@]5(C)[C@@H](c6ccc(=O)oc6)CC[C@]45O)[C@@]3(C)CC2)[C@H](O)[C@H](O)[C@H]1O (stereo partly drawn)
Completion: < 0.26 µM (active)

Prompt: Now consider COc1ccc(NC(=O)N2CCCCN3[C@H](C2)[C@@H](c2ccc(C#Cc4ccccc4)cc2)[C@@H]3CO)cc1 .
Completion: 5.67 µM (active)

Prompt: COc1ccc(CC2C(=O)NC(C)C(=O)N(C)C3C(=O)N(C)C(Cc4ccc(O)c(c4)Oc4ccc(cc4)C3O)C(=O)NC(C)C(=O)NC(C)C(=O)N2C)cc1 (stereo not drawn) , same question.
Completion: < 0.26 µM (active)

Prompt: Repeat with COc1ccccc1C#Cc1ccc2c(c1)O[C@H](CN(C)Cc1cccnc1)[C@H](C)CN([C@H](C)CO)S2(=O)=O
Completion: 8.98 µM (active)

Prompt: Now try Cc1cnc(NC(=O)c2ccc3c(c2)OCCO3)s1 .
Completion: 3.49 µM (active)

====

- target-under-test: Genome polyprotein (dengue virus type 2, UniProt P29990)
- procedure-text: Dengue-2 NS5 methyltransferase inhibitors, primary screen, biochemical, confirmation dose response (AID 588689)
- Format: functional
Calls of active or inactive are those of the source.
Can you tell me IC50 for the items I'm about to list?

Prompt: Form field: reported IC50 of C#CCOc1ccc(/C=C2/C(=O)N(c3cccc(C(=O)O)c3)N=C2C)cc1OC
Completion: 8.42 µM (active)

Prompt: Also O=C1NC(=S)NC(=O)C1=Cc1cccn1-c1ccc(O)cc1 ?
Completion: 34.2 µM (active)

Prompt: One more molecule: C=CCOc1ccc(/C=C2\SC(=S)N(NS(=O)(=O)c3ccc(C)cc3)C2=O)cc1
Completion: 32.9 µM (active)

Prompt: Could you do the same for COc1ccc2[nH]c3c4c(ccc3c2c1)C(=O)C=CC4=O , please?
Completion: > 100 µM (active)

Prompt: What about this molecule? Oc1cc(-n2cccn2)c(O)cc1-n1cccn1
Completion: 79.2 µM (active)

Prompt: Same thing, different molecule: CC1=C(C#N)c2nc(N)c(C#N)c(C)c2/C1=C\c1ccc(OCC(=O)O)c(Cl)c1
Completion: 35.9 µM (active)

Prompt: Another molecule: COc1ccc(OC)c(N2C(=O)C(Cl)=C(N3CCOCC3)C2=O)c1
Completion: 18.1 µM (active)

Prompt: What about O=[N+]([O-])c1cccc(/C=C/c2nc(O)nc(O)c2[N+](=O)[O-])c1 ?
Completion: 72.8 µM (active)

====

- target-under-test: Heat shock factor protein 1 (Mus musculus)
- Sequence (P38532 whole entry): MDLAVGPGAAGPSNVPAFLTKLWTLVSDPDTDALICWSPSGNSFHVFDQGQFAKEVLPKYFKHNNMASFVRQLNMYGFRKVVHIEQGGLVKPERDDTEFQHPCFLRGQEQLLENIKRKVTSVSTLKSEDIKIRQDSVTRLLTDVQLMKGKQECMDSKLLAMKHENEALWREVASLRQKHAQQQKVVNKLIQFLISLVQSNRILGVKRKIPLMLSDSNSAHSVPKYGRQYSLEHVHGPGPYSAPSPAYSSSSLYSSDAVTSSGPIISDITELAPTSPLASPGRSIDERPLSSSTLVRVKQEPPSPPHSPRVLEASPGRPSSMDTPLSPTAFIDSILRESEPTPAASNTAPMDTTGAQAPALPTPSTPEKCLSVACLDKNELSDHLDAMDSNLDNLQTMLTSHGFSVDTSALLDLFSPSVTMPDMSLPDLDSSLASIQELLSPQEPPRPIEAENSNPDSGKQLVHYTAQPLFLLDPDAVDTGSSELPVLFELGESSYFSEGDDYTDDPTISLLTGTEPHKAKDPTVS
- procedure-text: HSF1 potentiators in luciferase reporter cells, confirmation, cell-based, NIH3T3, luminescence, dose retest (AID 435004);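 also: stress induced by proteasome inhibitor MG132 added 30 min after compound; luciferase reporter driven by HSF1 response element in NIH3T3 cells; actives raise luminescence as potentiators of the MG132 stress response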
- Type: functional
Activity calls are given as the source filed them.
The reply should be one of these categories: 1 = active, 0 = inactive

Prompt: What is the recorded call for this compound in the test? CC(C)SC1=NC(/C=C/c2ccc(Cl)cc2Cl)=CC(C)(C)N1
Completion: 1

Prompt: Could you do the same for Cc1ccc(C(=O)Oc2oc(-c3ccccc3)nc2/C=N/c2ccc(N(C)C)cc2)cc1 , please?
Completion: 1

Prompt: Record: O=C(COC(=O)c1cn(-c2ccccc2)nc1-c1ccccc1)c1ccc([N+](=O)[O-])cc1
Completion: 0

Prompt: Quick one: COc1cc(/C=C/C(=O)N2CCOCC2)ccc1OCc1ccccc1
Completion: 0

Prompt: Okay, and O=c1c2ccccc2nc(SCc2cn3ccsc3n2)n1-c1ccccc1 ?
Completion: 0

Prompt: Same question for COc1cccc(C(=O)c2c(C)c(CCC#N)n3ccccc23)c1OC please.
Completion: 0

Prompt: Now the compound O=C(Cn1nc(-c2ccccc2Cl)ccc1=O)Nc1ccccc1-c1ccccc1
Completion: 1

Prompt: Same again, this time with CC[C@H](C)/C=C(C)/C=C/C(=O)Cc1cc(O)c(C)c(O)c1C=O
Completion: 1

Prompt: Now this one: O=C1NC(=S)NC(=O)C1=Cc1cccn1-c1ccc(O)cc1
Completion: 1

Prompt: For CCc1nn(C(C)C(=O)NC(C)CCc2ccco2)c(=O)c2cc3occc3n12 (stereo unspecified) then?
Completion: 0

====

- target-under-test: Paired box protein Pax-8 (Homo sapiens)
- Sequence (Q06710 whole entry): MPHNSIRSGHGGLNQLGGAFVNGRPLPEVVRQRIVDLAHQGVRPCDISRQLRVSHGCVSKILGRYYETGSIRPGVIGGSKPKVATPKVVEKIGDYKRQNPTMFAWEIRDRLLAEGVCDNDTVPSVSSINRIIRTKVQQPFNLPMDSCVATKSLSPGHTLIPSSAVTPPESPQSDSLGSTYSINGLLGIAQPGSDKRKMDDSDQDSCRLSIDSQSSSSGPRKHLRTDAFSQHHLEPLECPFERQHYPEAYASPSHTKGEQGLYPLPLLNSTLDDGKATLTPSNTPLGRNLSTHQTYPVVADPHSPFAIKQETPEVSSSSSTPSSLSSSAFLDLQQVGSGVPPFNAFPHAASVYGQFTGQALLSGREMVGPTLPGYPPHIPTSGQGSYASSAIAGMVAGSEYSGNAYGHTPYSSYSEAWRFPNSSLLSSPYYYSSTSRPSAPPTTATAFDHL
- procedure-text: inhibitors of PAX8-driven TPO luciferase reporter, dose response, RMG-I cells, cherry-pick (AID 687027);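 also: luciferase reporter driven by Pax8 target thyroperoxidase promoter measured by SteadyGlo luminescence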
- Assay type: functional, cell-based
Calls of active or inactive are those of the source.
Consider the following compounds; for each one, report its AC50.

Prompt: Give recorded AC50 with Paired box protein Pax-8 (Homo sapiens) for the following compound: C[C@H](O)C#Cc1cnc2c(c1)C(=O)N([C@H](C)CO)C[C@H](C)[C@H](CN(C)Cc1ccc(-c3ccccc3)cc1)O2
Completion: 5.05 µM (active)

Prompt: // same read-out, input: O=C(O)c1ccc(N/N=C/c2ccc3nccnc3c2)cc1
Completion: 2.07 µM (active)

Prompt: Cc1ccc(S(=O)(=O)N(C)C[C@@H]2Oc3ccc(NC(=O)Nc4ccc(C(F)(F)F)cc4)cc3CC(=O)N([C@@H](C)CO)C[C@@H]2C)cc1 ?
Completion: 0.799 µM (active)

Prompt: Also O=c1nc(-c2ccccn2)[nH]c2sc(-c3ccccc3)cc12 , if possible.
Completion: 14 µM (active)

Prompt: Entry to check: CN(C(=O)OC(C)(C)C)c1ccc(-c2nc3ccccc3s2)cc1
Completion: 0.379 µM (active)

Prompt: Please do the same for N#C[C@@H]1[C@H](c2ccc(-c3ccccc3F)cc2)[C@@H](CO)N1C(=O)Cc1ccccc1 as well.
Completion: 17.3 µM (active)

Prompt: Also check Cn1nnnc1Sc1ncnc2scc(-c3ccc(Br)cc3)c12
Completion: 3.56 µM (active)

Prompt: And for O=S(=O)(/C(=C/c1ccc(C(F)(F)F)cc1)c1nc2ccccc2[nH]1)c1ccccc1 ?
Completion: 2.82 µM (active)

Prompt: Further, for O=S(=O)(c1ccccc1F)N1CC[C@H]2[C@H](CO)Nc3ccc(C4=CCCCC4)cc3[C@H]21 ?
Completion: 6.12 µM (active)
